System: HOP-62 NSCLC
Assay: NCI-60 one-dose screen, 48 h
Conditions: 10 µM unless noted
This is part of a sample that, as a whole, favours compounds with a hit. Of some 83,000 tested, about 20% had one in any assay. Activity calls are given as the source filed them. How the source made its calls: active means growth percent below 10; inactive means the rest.
Your answer must be one of the following: true (1) for active, false (0) for inactive

[
  {
    "compound": "O=C1OCC2=C1C(c1cccc(F)c1)c1cc3c(cc1N2CCO)OCCO3 (centres undefined)",
    "assignedClass": "false (0)"
  }
]

Q: Just curious, what result did "CN(C)CCOC(=O)Nc1nc2ccc(Sc3ccccc3)cc2[nH]1" get here?
Ans: false (0)

Q: Just curious, what result did "COc1ccc(-c2nocc2-c2cc(OC)c(OC)c(OC)c2)cc1" get here?
Ans: false (0)

* * *

Test system: SF-539 CNS
Test: NCI-60 one-dose screen, 48 h (100 = growth as untreated, 0 = no growth, -100 = all killed)
Conditions: 10 µM unless noted
Experimental: Cells are grown in 96 well plates and exposed to the test compound for 48 hours. Compounds are tested at a single concentration, which is 10^-5 M for most compounds. The reported endpoint is percent growth (GI% or GIPRCNT), where numbers from 0 - 100% represent growth inhibition, and numbers from -100% - 0 represent cell death. For example, a value of 40 represents 60% growth inhibition. A value of 0 means no net growth occurred over the course of the experiment. […]
The panel holds about 83,000 compounds, 20% with a hit somewhere; the sample as a whole holds those more often. Activity calls are given as the source filed them. How the source made its calls: active means growth percent below 10; inactive means the rest.
# growth listing for each entry below

Take a look at these entries with their results.
[
  {
    "compound": "CC/C(=C(\\c1ccc(OCCN2CCCCCCC2)cc1)c1ccc(OC(=O)C2CCCCC2)cc1)c1ccc(Cl)cc1",
    "growth": "102% (inactive)"
  },
  {
    "compound": "CCC1(/C=N/NC(N)=S)NC(=O)NC1=O (configuration not stated)",
    "growth": "109% (inactive)"
  },
  {
    "compound": "CNC(=O)c1ccc(Nc2ncc(C(F)(F)F)c(NCc3nccnc3N(C)S(C)(=O)=O)n2)cc1",
    "growth": "-42.7% (active)"
  },
  {
    "compound": "O=C(NC[C@H](O)CO)c1ccncc1Nc1ccc(I)cc1F",
    "growth": "52.5% (inactive)"
  },
  {
    "compound": "O=C(N/N=C/c1ccc(Cl)cc1)c1cc(-c2cc3ccccc3o2)nn1-c1ccccc1",
    "growth": "84.9% (inactive)"
  }
]

Q: Tell us which growth value is on record for N#CC1(C#N)C(c2cccs2)NC(c2cccs2)C1(C#N)C#N (configuration not stated)
Ans: 97.6% (inactive)

Q: Tell us which growth value is on record for "CN(C)CCOC(=O)Nc1nc2ccc(Sc3ccccc3)cc2[nH]1"
Ans: -0.508% (active)

Q: Tell us which growth value is on record for O=C1CSC(c2c(F)cccc2Cl)N1NC(=O)C(O)(c1ccccc1)c1ccccc1 (configuration not stated)
Ans: 100% (inactive)

Q: Tell us which growth value is on record for "C=CC(=O)N1CCC[C@@H](n2nc(-c3ccc(Oc4ccccc4)cc3)c3c(N)ncnc32)C1"
Ans: 32.9% (inactive)

Q: Tell us which growth value is on record for COc1ccc(-c2cc3c(oc2=O)-c2ccccc2OC3OC(C)=O)cc1 (configuration not stated)
Ans: 101% (inactive)

* * *

# growth listing for each entry below
Test system: SR leukemia
Test: NCI-60 one-dose screen, 48 h (100 = growth as untreated, 0 = no growth, -100 = all killed)
Conditions: 10 µM unless noted
This is part of a sample that, as a whole, favours compounds with a hit. Of some 83,000 tested, about 20% had one in any assay.
The response must be a number in % with no trailing unit.

Take a look at these entries with their results.
[
  {
    "compound": "CN(C)C[C@@H]1CCn2cc(c3ccccc32)C2=C(C(=O)NC2=O)c2cn(c3ccccc23)CCO1",
    "endpointUnit": "%",
    "quantitativeReadout": -11.8
  },
  {
    "compound": "NC[C@@](O)(c1ccc(Cl)cc1)c1ccc(-c2cn[nH]c2)cc1",
    "endpointUnit": "%",
    "quantitativeReadout": 0.545
  },
  {
    "compound": "NC1=Nc2ccccc2N(O)N1",
    "endpointUnit": "%",
    "quantitativeReadout": 105
  },
  {
    "compound": "COC(=O)[C@@H](NC(=O)[C@@H](OC)[C@@H]1Cc2cc3cc(OC4CC(OC5CC(O)C(O)C(C)O5)C(O)C(C)O4)c(C)c(O)c3c(O)c2C(=O)[C@H]1OC1CC(OC2CC(OC3CC(C)(O)C(O)C(C)O3)C(O)C(C)O2)C(O)C(C)O1)C(C)C (some centres not stated)",
    "endpointUnit": "%",
    "quantitativeReadout": -8.16
  },
  {
    "compound": "CNC(=O)c1cc(Oc2ccc3nc(NC(=O)Nc4ccc(Cl)c(C(F)(F)F)c4)sc3c2)ccn1",
    "endpointUnit": "%",
    "quantitativeReadout": 22.6
  }
]

Q: Tell us which growth value is on record for "O=c1sn(-c2cccc3ccccc23)c(=O)n1Cc1ccccc1"
Ans: 38.7

Q: Tell us which growth value is on record for "O=C(NOCCO)c1cc(CN2OCCCC2=O)c(F)c(F)c1Nc1ccc(I)cc1F"
Ans: 65.6

* * *

Tested on: OVCAR-8 ovarian
Assay: NCI-60 one-dose screen, 48 h (100 = growth as untreated, 0 = no growth, -100 = all killed)
Details: 10 µM unless noted
Protocol: Growth inhibition of the OVCAR-8 human tumor cell line is measured as a screen for anti-cancer activity. Cells are grown in 96 well plates and exposed to the test compound for 48 hours. Compounds are tested at a single concentration, which is 10^-5 M for most compounds. The reported endpoint is percent growth (GI% or GIPRCNT), where numbers from 0 - 100% represent growth inhibition, and numbers from -100% - 0 represent cell death. For example, a value of 40 represents 60% growth inhibition. […]
This is part of a sample that, as a whole, favours compounds with a hit. Of some 83,000 tested, about 20% had one in any assay. Activity calls are given as the source filed them. Rule for the calls: active = growth percent below 10; inactive = the rest.
experimentalReadout: growth

Take a look at these entries with their results.
[
  {
    "molecule": "O=C(Cc1ccccc1)Nc1nnc(NC2CCN(c3nnc(NC(=O)Cc4ccccc4)s3)CC2)s1",
    "measuredTarget": "OVCAR-8 ovarian",
    "result": "95.2% (inactive)"
  },
  {
    "molecule": "C[C@]12O[C@H](C[C@]1(O)CO)n1c3ccccc3c3c4c(c5c6ccccc6n2c5c31)CNC4=O",
    "measuredTarget": "OVCAR-8 ovarian",
    "result": "-32.5% (active)"
  }
]

Q: Tell us which growth value is on record for "NS(=O)(=O)c1ccc(CCN2C(=O)/C(=C\c3ccc(Cl)cc3)C=C2c2ccc3ccccc3c2)cc1"
Ans: 83.7% (inactive)

Q: Tell us which growth value is on record for "C=CC(=O)Nc1cc2c(Nc3ccc(F)c(Cl)c3)ncnc2cc1C#CC(C)(C)N1CCN(C)CC1"
Ans: -73.5% (active)

Q: Tell us which growth value is on record for "CN(N)c1nc2sc3c(c2c(=O)[nH]1)CCCC3"
Ans: 102% (inactive)

Q: Tell us which growth value is on record for "CC(C)(C)c1cnc(CSc2cnc(NC(=O)C3CCNCC3)s2)o1"
Ans: 5.71% (active)

Q: Tell us which growth value is on record for "C=CC(=O)Nc1cccc(Nc2nc(Nc3ccc(N4CCN(C(C)=O)CC4)cc3OC)ncc2C(F)(F)F)c1"
Ans: 18.9% (inactive)

* * *

Test system: T-47D breast
Assay: NCI-60 one-dose screen, 48 h
Details: 10 µM unless noted
This is part of a sample that, as a whole, favours compounds with a hit. Of some 83,000 tested, about 20% had one in any assay. The source made the active and inactive calls. How the source made its calls: active means growth percent below 10; inactive means the rest.
Your answer must be one of the following: active, inactive

Below, 2 compounds whose answers are already recorded.
[
  {
    "chemicalSmiles": "CSC1=C(N)C(=O)c2[nH]cc(CO)c2C1=N",
    "assignedClass": "active"
  },
  {
    "chemicalSmiles": "CN(C)C1CCN(C(=O)c2ccc(NC(=O)Nc3ccc(-c4nc(N5CCOCC5)nc(N5CCOCC5)n4)cc3)cc2)CC1",
    "assignedClass": "active"
  }
]

Alright, here's another compound for you.
Q: Just curious, what result did "c1cc[n+](Cc2c3ccccc3cc3c2ccc2ccccc23)cc1" get here?
Ans: inactive

* * *

Tested on: OVCAR-3 ovarian
Test: NCI-60 one-dose screen, 48 h (100 = growth as untreated, 0 = no growth, -100 = all killed)
Conditions: 10 µM unless noted
The panel holds about 83,000 compounds, 20% with a hit somewhere; the sample as a whole holds those more often.
# growth listing for each entry below
The response must be a number in % with no trailing unit.

[
  {
    "molecule": "CO[C@H](C(=O)N[C@@H](CCCCNC(=O)OCc1ccccc1)C(=O)OC(C)(C)C)[C@@H]1Cc2cc3cc(OC4CC(OC5CC(O)C(O)C(C)O5)C(O)C(C)O4)c(C)c(O)c3c(O)c2C(=O)[C@H]1OC1CC(OC2CC(OC3CC(C)(O)C(O)C(C)O3)C(O)C(C)O2)C(O)C(C)O1 (some centres not stated)",
    "measuredTarget": "OVCAR-3 ovarian",
    "growth, %": 24.8
  },
  {
    "molecule": "COc1cccc(NC(=O)Nc2ccc(Nc3ncnc4sc5c(c34)CCN(C(=O)CCl)C5)cc2)c1",
    "measuredTarget": "OVCAR-3 ovarian",
    "growth, %": 104
  },
  {
    "molecule": "COc1cnc2c(c1)C(=O)c1c-2n(CCCN2CCOCC2)c(=O)c2cc(Cl)ccc12",
    "measuredTarget": "OVCAR-3 ovarian",
    "growth, %": 25.8
  },
  {
    "molecule": "COc1ccc(S(=O)(=O)N(C(C)=O)c2ccccc2/C=C/c2cc[n+]([O-])cc2)cc1",
    "measuredTarget": "OVCAR-3 ovarian",
    "growth, %": 28.2
  },
  {
    "molecule": "COc1ccc2c(c1OC)C(=O)O[C@@H]2[C@H]1c2c(c(C#CC#Cc3ccc(F)c(F)c3)c3c(c2OC)OCO3)CCN1C",
    "measuredTarget": "OVCAR-3 ovarian",
    "growth, %": 104
  },
  {
    "molecule": "CC(C)(O)CC(=O)NCCn1ccc2ncnc(Nc3ccc(Oc4cccc(C(F)(F)F)c4)c(Cl)c3)c21",
    "measuredTarget": "OVCAR-3 ovarian",
    "growth, %": 32.6
  }
]

Q: Tell us which growth value is on record for "C=CC(=O)N1CCC[C@H](n2c(=O)n(-c3ccc(Oc4ccccc4)cc3)c3c(N)ncnc32)C1"
Ans: 76.4
